meta.source: PubChem BioAssay (NCI)

system: NCI-H522 lung; assay: NCI tumour cell line growth inhibition, 48 h
quantity.measured: TGI

Using the record for [N-]=[N+]=Nc1c(N2CCOCC2)c(Cl)nc2ccccc12 , state its measured TGI.
> 100 µM

Using the record for Cc1cc(C(C)C)cc(O)c(=O)c1 , state its measured TGI.
> 100 µM

Using the record for CCOC(=O)/C=C1/SC(N2CCCCC2)C(=O)N1CC (stereo not given) , state its measured TGI.
> 100 µM

Using the record for CCc1cccc(CC)c1NC(=O)C(C#N)C1=C(Cl)C(=O)c2ccccc2C1=O (stereo not given) , state its measured TGI.
23 µM

Using the record for Cc1ccccc1N(CC(=O)O)S(=O)(=O)c1ccccc1 , state its measured TGI.
> 100 µM

Using the record for c1ccc2c3ccn4ccc5c6ccccc6[nH]c5c4c-3nc2c1 , state its measured TGI.
3.27 µM

Using the record for CC1OC(OC2C(O)CC(OC3C(O)CC(OC4CCC5(C)C(CCC6C5CCC5(C)C(C7=CC(=O)OC7)CCC65O)C4)OC3C)OC2C)CC(O)C1O (stereo not given) , state its measured TGI.
0.0224 µM

Using the record for CCCCCCCCCCn1cccc1/C=C/c1ccc(/C=C/c2cccn2CCCCCCCCCC)cc1 , state its measured TGI.
> 100 µM

Using the record for N#Cc1c(Br)n(C2OC(CO)C(O)C2O)c2ncn3ccnc3c12 (stereo not given) , state its measured TGI.
> 100 µM

Using the record for CC(C)c1ccc(/C=C2\N=C(c3ccc([N+](=O)[O-])cc3)OC2=O)cc1 , state its measured TGI.
> 100 µM

----------
system: UACC-62 melanoma; experiment: NCI tumour cell line growth inhibition, 48 h
quantity.measured: TGI

Provide measured TGI on UACC-62 melanoma for O=C1C(Cl)N(c2ccc(Cl)cc2Cl)C1c1c[nH]c2ccccc12 (stereo not drawn) please.
> 100 µM

Provide measured TGI on UACC-62 melanoma for CC1=C(C(=O)N[C@@H](CC(C)C)C(=O)O)N2C(=O)[C@@H](NC(=O)[C@@H](N)Cc3ccccc3)[C@H]2SC1 please.
> 100 µM

Provide measured TGI on UACC-62 melanoma for C/C(=N\NC(=O)c1ccncc1)c1ccccc1Cl please.
> 100 µM

----------
Consider the following compounds; for each one, report its TGI.
test system: MALME-3M melanoma; assay: NCI tumour cell line growth inhibition, 48 h

Using the record for O=C1CCC2(c3ccc(F)cc3)Nc3ncccc3N12 (stereo not given) , state its measured TGI.
> 100 µM

Using the record for O=c1cc(NCC(O)CN2CCOCC2)n(Cc2ccccc2)c(=O)n1Cc1ccccc1 (stereo not given) , state its measured TGI.
77.3 µM

Using the record for O=C(O)CCCNS(=O)(=O)c1ccccc1 , state its measured TGI.
> 100 µM

Using the record for O=C1C(Cl)N(c2ccc(Cl)cc2Cl)C1c1c[nH]c2ccccc12 (stereo not given) , state its measured TGI.
> 100 µM

Using the record for Cc1ccccc1N(CC(=O)O)S(=O)(=O)c1ccccc1 , state its measured TGI.
> 100 µM

Using the record for COc1ccc2c(c1)NC(=O)CN2c1nc(NC2CC2)nc2ccccc12 , state its measured TGI.
84.7 µM

Using the record for CCOC(=O)c1c(SCc2ccccc2)nc2c3ccccc3ccn12 , state its measured TGI.
> 100 µM

Using the record for O=C(Nc1ccc2ncccc2c1)c1cc2c(cc1Cl)Sc1nccn1S2(=O)=O , state its measured TGI.
35.1 µM

Using the record for C[Si](C)(c1ccccc1)C1CC(=O)CC(=O)C1 , state its measured TGI.
> 100 µM

Using the record for CC(C)C[C@H](NC(=O)Cn1ccc(Nc2ccccc2)cc1=O)B(O)O , state its measured TGI.
8.77 µM

Using the record for [N-]=[N+]=NC1C2CC3C4CC5CC3[C@H](C2)C(C5)C41 (stereo not given in full) , state its measured TGI.
> 100 µM

Using the record for COc1nc(NC2OCC(OC(C)=O)C(OC(C)=O)C2OC(C)=O)c(-c2csc(N)n2)c(=O)n1C (stereo not given) , state its measured TGI.
> 100 µM

Using the record for C/C=C1\C(=O)O[C@H]2C/C(C)=C/CC/C(C)=C/CC[C@@]3(C)O[C@@H]3C[C@@H]12 , state its measured TGI.
> 100 µM

Using the record for CCOC(=O)C1=C(OC(OCC)C(C)[Se]c2ccccc2)CCC1 (stereo not given) , state its measured TGI.
89.5 µM

Using the record for COc1ccc2c(c1)[n+]([O-])c(C#N)c(NC(=O)c1cccs1)[n+]2[O-] , state its measured TGI.
> 100 µM

Using the record for CC1(C)c2ccccc2C(C)(C)C(C(=O)Nc2ccccc2)C1C(=O)O (stereo not given) , state its measured TGI.
> 100 µM

Using the record for [Cl-].[Nd+3].[O-]/N=C(\c1ccccc1)c1ccccn1.[O-]/N=C(\c1ccccc1)c1ccccn1.[O-]/N=C(\c1ccccc1)c1ccccn1 , state its measured TGI.
96.9 µM

Using the record for O=C(/C=C/c1ccc(Br)cc1)c1ccc(NCc2nc3ccccc3[nH]2)cc1 , state its measured TGI.
> 100 µM

Using the record for CCOC(=O)/C(=C\NCc1ccc2c(c1)OCO2)c1nc2ccccc2[nH]1 , state its measured TGI.
> 100 µM

Using the record for C/C(=N/OC(=O)c1cccc2c(=O)c3ccccc3[nH]c12)[C@H]1CC[C@H]2[C@@H]3CCC4=C/C(=N/OC(=O)c5cccc6c(=O)c7ccccc7[nH]c56)CC[C@]4(C)[C@H]3CC[C@]12C , state its measured TGI.
37.3 µM

----------
Consider the following compounds; for each one, report its TGI.
system: SW-620 colon; experiment: NCI tumour cell line growth inhibition, 48 h

Using the record for COC(=O)C1Cc2c([nH]c3ccccc23)C(c2ccccc2O)N1 (stereo not drawn) , state its measured TGI.
> 100 µM

Using the record for CCCNc1[nH]c(C(=O)c2ccccc2)c(N)c1C(=S)Nc1ccccc1 , state its measured TGI.
> 100 µM

Using the record for CCOC(=O)C(NC(=O)CC)(Nc1ccccc1OC)C(F)(F)F (stereo not drawn) , state its measured TGI.
> 100 µM

----------
tested on: HL-60(TB) leukemia; assay: NCI tumour cell line growth inhibition, 48 h
Consider the following compounds; for each one, report its log10 of TGI.
Annotation: log10 of TGI, µM basis.

Using the record for CC(=O)OC1CC2C(C)(C)C(=O)C=C[C@]2(C)C2CC[C@]3(C)C(OCC(=O)[C@H]3c3ccoc3)[C@]12C (stereo not given in full) , state its measured log10 of TGI.
1.25

Using the record for Cn1ncc2c(Nc3ccc(Cl)cc3)c3ccccc3nc21 , state its measured log10 of TGI.
1.87

Using the record for COC1(OC)CC(CO)(CNc2nc(N)nc(Cl)c2C=O)C1 , state its measured log10 of TGI.
1.55

Using the record for C=C1C(=O)O[C@H]2[C@H]1CC/C(COC(=O)CCSSCCC(=O)OC/C1=C/CC[C@@]3(C)O[C@H]3[C@H]3OC(=O)C(=C)[C@@H]3CC1)=C\CC[C@@]1(C)O[C@@H]21 , state its measured log10 of TGI.
0.34

Using the record for O=C(Nc1ccc(Cl)c(Cl)c1)C(=O)C(C(=O)c1ccccc1F)C1OC(=O)c2ccccc21 (stereo not given) , state its measured log10 of TGI.
1.61

----------
tested on: RPMI-8226 leukemia; test: NCI tumour cell line growth inhibition, 48 h
Consider the following compounds; for each one, report its TGI.
Express your answer in µM, writing the number without its unit.

Using the record for COc1cc2c[n+](C)c3c4cc(OC)c(OC)cc4c(OCc4ccccc4)cc3c2cc1OC , state its measured TGI.
77.2

Using the record for OCc1ccc(N(Cc2ccc(F)cc2)CC2CC2)cc1Cl , state its measured TGI.
36

----------
Consider the following compounds; for each one, report its TGI.
test system: K-562 leukemia; assay: NCI tumour cell line growth inhibition, 48 h

Using the record for Cn1ncc2c(Nc3ccc(Cl)cc3)c3ccccc3nc21 , state its measured TGI.
56.7 µM

Using the record for C=C1C(NC)CCC23CC24CCC2(C)C(C(C)=O)C(O)CC2(C)C4CCC13 (configuration not stated) , state its measured TGI.
> 100 µM

Using the record for C=C1C(=O)O[C@H]2[C@H]1CC/C(COC(=O)CCSSCCC(=O)OC/C1=C/CC[C@@]3(C)O[C@H]3[C@H]3OC(=O)C(=C)[C@@H]3CC1)=C\CC[C@@]1(C)O[C@@H]21 , state its measured TGI.
2.85 µM

Using the record for Cc1ccc(NC(=O)SCCC(=O)O)cc1 , state its measured TGI.
> 100 µM

Using the record for CC(=O)NNc1nc(C)c(C(=O)/C=C/c2cccc([N+](=O)[O-])c2)s1 , state its measured TGI.
> 100 µM

Using the record for Cc1ccc(NC2=N[C@]34CC(=O)CC[C@]3(C)[C@H]3CC[C@]5(C)C(=O)CC[C@H]5[C@@H]3C[C@@H]4S2)c(C)c1 , state its measured TGI.
> 100 µM

Using the record for Oc1ccc(-c2nc(=S)[nH][nH]2)cc1 , state its measured TGI.
> 100 µM

Using the record for COc1ccc2c(c1)NC(=O)CN2c1nc(NC2CC2)nc2ccccc12 , state its measured TGI.
> 100 µM

Using the record for COC(=O)C1CCC2(C)[C@H](CCC3O[C@]32C)[C@@]1(C)CC(=O)c1ccoc1 (some centres not stated) , state its measured TGI.
> 100 µM

Using the record for c1ccc2c(CC3NCCN3)cccc2c1 , state its measured TGI.
> 100 µM

Using the record for CCCNC(=S)N=Nc1c(O)[nH]c2ccccc12 , state its measured TGI.
> 100 µM

Using the record for O=C1c2cc3ccccc3cc2C2(c3ccc(Cl)cc3)NCCN12 (configuration not stated) , state its measured TGI.
> 100 µM

Using the record for O=C(Nc1ccc([As]=[As]c2ccc(NC(=O)c3ccccc3)cc2)cc1)c1ccccc1 (configuration not stated) , state its measured TGI.
0.56 µM

Using the record for C=C1C(=O)OC2/C=C(/CO)C3(O)CC(O)C(C)(CC(OC(=O)/C(C)=C/C)C12)O3 (configuration not stated) , state its measured TGI.
> 100 µM

Using the record for Cc1cc([N+](=O)[O-])ccc1Sc1c2ccccc2nc2ccccc12 , state its measured TGI.
> 100 µM

Using the record for O=c1[nH]c2cc(F)c(F)cc2nc1Cc1ccccc1 , state its measured TGI.
> 100 µM

Using the record for CC(=O)OC1CC2C(C)(C)C(=O)C=C[C@]2(C)C2CC[C@]3(C)C(OCC(=O)[C@H]3c3ccoc3)[C@]12C (some centres not stated) , state its measured TGI.
7.04 µM

Using the record for Cc1cc(Nc2ccc3c(c2)OCO3)c2cc3c(cc2n1)OCO3 , state its measured TGI.
> 100 µM

Using the record for O=C(Nc1ccc2ncccc2c1)c1cc2c(cc1Cl)Sc1nccn1S2(=O)=O , state its measured TGI.
47 µM

Using the record for c1ccc(C(NC2CCCCC2NCCNC2CCCCC2NC(c2ccccc2)(c2ccccc2)c2ccccc2)(c2ccccc2)c2ccccc2)cc1 (configuration not stated) , state its measured TGI.
> 100 µM

Using the record for S=C(Nc1ccccc1)Nc1ccccc1SC(/C=C/NNC1=NC(c2ccccc2)C(c2ccccc2)=NN1)c1ccccc1 (configuration not stated) , state its measured TGI.
> 100 µM

Using the record for COc1cc([C@@H]2C3C(=O)c4ccccc4C3[C@@H](c3cc(OC)c(OC)c(OC)c3)C23Cc2ccccc2C3=O)cc(OC)c1OC (some centres not stated) , state its measured TGI.
> 100 µM
